As shown below, each of these compounds has a reported inhibition value.
Species on record: Homo sapiens
Assay: Inhibition of alpha-glucoamylase (unknown origin) assessed as 1-Ki/Kc X 100% at 100 mg/l after 10 min spectrophotometry

See these solved cases before continuing.
{"COMPOUND": "Cc1cc(O)c2c(c1)C(=O)c1cc(O)cc(O)c1C2=O", "inhibition": "23.6%"}
{"COMPOUND": "C[C@H]1O[C@H](O[C@H]2[C@H](O)[C@@H](O)[C@@H](O[C@H]3[C@H](O)[C@@H](O)C(O)O[C@@H]3CO)O[C@@H]2CO)[C@H](O)[C@@H](O)[C@@H]1N[C@H]1C=C(CO)[C@@H](O)[C@H](O)[C@H]1O (some centres not stated)", "inhibition": "91.4%"}
{"COMPOUND": "CCCCCCCCOc1cc(O)c2c(c1)C(=O)c1cc(C(=O)O)cc(O)c1C2=O", "inhibition": "60.6%"}
{"COMPOUND": "CCCCCCCCCCCCOc1cc(O)c2c(c1)C(=O)c1cc(C(=O)O)cc(O)c1C2=O", "inhibition": "50.7%"}
{"COMPOUND": "CCCCOc1cc(O)c2c(c1)C(=O)c1cc(C(=O)O)cc(O)c1C2=O", "inhibition": "45%"}

Reported inhibition, compound `CCCCCCCCCCCCCCCCOc1cc(O)c2c(c1)C(=O)c1cc(C(=O)O)cc(O)c1C2=O` : ____ 29.8%

Reported inhibition, compound `CCCCCCOc1cc(O)c2c(c1)C(=O)c1cc(C(=O)O)cc(O)c1C2=O` : ____ 54.5%

* * *

Experiment: Inhibition of alpha-glucoamylase (unknown origin) assessed as Ki/Kc at 100 mg/l after 10 min spectrophotometry; values are per cent of control
Conditions: Homo sapiens
As shown below, each of these compounds has a reported residual activity value.
Could you give me the number in %? Just the number is fine.

See these solved cases before continuing.
{"COMPOUND": "Cc1cc(O)c2c(c1)C(=O)c1cc(O)cc(O)c1C2=O", "ENDPOINT_LABEL": "residual activity", "UNITS_SYMBOL": "%", "RECORDED_VALUE": 76.4}
{"COMPOUND": "CCCCCCOc1cc(O)c2c(c1)C(=O)c1cc(C(=O)O)cc(O)c1C2=O", "ENDPOINT_LABEL": "residual activity", "UNITS_SYMBOL": "%", "RECORDED_VALUE": 45.5}
{"COMPOUND": "CCCCCCCCOc1cc(O)c2c(c1)C(=O)c1cc(C(=O)O)cc(O)c1C2=O", "ENDPOINT_LABEL": "residual activity", "UNITS_SYMBOL": "%", "RECORDED_VALUE": 39.4}
{"COMPOUND": "CCCCCCCCCCCCCCCCOc1cc(O)c2c(c1)C(=O)c1cc(C(=O)O)cc(O)c1C2=O", "ENDPOINT_LABEL": "residual activity", "UNITS_SYMBOL": "%", "RECORDED_VALUE": 70.2}
{"COMPOUND": "C[C@H]1O[C@H](O[C@H]2[C@H](O)[C@@H](O)[C@@H](O[C@H]3[C@H](O)[C@@H](O)C(O)O[C@@H]3CO)O[C@@H]2CO)[C@H](O)[C@@H](O)[C@@H]1N[C@H]1C=C(CO)[C@@H](O)[C@H](O)[C@H]1O (some centres not stated) [ACARBOSE]", "ENDPOINT_LABEL": "residual activity", "UNITS_SYMBOL": "%", "RECORDED_VALUE": 8.6}

Reported residual activity, compound `CCCCOc1cc(O)c2c(c1)C(=O)c1cc(C(=O)O)cc(O)c1C2=O` : ____ 55

Reported residual activity, compound `CCCCCCCCCCCCOc1cc(O)c2c(c1)C(=O)c1cc(C(=O)O)cc(O)c1C2=O` : ____ 49.3
